Cited source: patent US20220162192A1

- System under test: Recombinant G2019S-LRRK2 protein (Homo sapiens, UniProt Q5S007, G2019S)
- Sequence (Q5S007 whole entry G2019S): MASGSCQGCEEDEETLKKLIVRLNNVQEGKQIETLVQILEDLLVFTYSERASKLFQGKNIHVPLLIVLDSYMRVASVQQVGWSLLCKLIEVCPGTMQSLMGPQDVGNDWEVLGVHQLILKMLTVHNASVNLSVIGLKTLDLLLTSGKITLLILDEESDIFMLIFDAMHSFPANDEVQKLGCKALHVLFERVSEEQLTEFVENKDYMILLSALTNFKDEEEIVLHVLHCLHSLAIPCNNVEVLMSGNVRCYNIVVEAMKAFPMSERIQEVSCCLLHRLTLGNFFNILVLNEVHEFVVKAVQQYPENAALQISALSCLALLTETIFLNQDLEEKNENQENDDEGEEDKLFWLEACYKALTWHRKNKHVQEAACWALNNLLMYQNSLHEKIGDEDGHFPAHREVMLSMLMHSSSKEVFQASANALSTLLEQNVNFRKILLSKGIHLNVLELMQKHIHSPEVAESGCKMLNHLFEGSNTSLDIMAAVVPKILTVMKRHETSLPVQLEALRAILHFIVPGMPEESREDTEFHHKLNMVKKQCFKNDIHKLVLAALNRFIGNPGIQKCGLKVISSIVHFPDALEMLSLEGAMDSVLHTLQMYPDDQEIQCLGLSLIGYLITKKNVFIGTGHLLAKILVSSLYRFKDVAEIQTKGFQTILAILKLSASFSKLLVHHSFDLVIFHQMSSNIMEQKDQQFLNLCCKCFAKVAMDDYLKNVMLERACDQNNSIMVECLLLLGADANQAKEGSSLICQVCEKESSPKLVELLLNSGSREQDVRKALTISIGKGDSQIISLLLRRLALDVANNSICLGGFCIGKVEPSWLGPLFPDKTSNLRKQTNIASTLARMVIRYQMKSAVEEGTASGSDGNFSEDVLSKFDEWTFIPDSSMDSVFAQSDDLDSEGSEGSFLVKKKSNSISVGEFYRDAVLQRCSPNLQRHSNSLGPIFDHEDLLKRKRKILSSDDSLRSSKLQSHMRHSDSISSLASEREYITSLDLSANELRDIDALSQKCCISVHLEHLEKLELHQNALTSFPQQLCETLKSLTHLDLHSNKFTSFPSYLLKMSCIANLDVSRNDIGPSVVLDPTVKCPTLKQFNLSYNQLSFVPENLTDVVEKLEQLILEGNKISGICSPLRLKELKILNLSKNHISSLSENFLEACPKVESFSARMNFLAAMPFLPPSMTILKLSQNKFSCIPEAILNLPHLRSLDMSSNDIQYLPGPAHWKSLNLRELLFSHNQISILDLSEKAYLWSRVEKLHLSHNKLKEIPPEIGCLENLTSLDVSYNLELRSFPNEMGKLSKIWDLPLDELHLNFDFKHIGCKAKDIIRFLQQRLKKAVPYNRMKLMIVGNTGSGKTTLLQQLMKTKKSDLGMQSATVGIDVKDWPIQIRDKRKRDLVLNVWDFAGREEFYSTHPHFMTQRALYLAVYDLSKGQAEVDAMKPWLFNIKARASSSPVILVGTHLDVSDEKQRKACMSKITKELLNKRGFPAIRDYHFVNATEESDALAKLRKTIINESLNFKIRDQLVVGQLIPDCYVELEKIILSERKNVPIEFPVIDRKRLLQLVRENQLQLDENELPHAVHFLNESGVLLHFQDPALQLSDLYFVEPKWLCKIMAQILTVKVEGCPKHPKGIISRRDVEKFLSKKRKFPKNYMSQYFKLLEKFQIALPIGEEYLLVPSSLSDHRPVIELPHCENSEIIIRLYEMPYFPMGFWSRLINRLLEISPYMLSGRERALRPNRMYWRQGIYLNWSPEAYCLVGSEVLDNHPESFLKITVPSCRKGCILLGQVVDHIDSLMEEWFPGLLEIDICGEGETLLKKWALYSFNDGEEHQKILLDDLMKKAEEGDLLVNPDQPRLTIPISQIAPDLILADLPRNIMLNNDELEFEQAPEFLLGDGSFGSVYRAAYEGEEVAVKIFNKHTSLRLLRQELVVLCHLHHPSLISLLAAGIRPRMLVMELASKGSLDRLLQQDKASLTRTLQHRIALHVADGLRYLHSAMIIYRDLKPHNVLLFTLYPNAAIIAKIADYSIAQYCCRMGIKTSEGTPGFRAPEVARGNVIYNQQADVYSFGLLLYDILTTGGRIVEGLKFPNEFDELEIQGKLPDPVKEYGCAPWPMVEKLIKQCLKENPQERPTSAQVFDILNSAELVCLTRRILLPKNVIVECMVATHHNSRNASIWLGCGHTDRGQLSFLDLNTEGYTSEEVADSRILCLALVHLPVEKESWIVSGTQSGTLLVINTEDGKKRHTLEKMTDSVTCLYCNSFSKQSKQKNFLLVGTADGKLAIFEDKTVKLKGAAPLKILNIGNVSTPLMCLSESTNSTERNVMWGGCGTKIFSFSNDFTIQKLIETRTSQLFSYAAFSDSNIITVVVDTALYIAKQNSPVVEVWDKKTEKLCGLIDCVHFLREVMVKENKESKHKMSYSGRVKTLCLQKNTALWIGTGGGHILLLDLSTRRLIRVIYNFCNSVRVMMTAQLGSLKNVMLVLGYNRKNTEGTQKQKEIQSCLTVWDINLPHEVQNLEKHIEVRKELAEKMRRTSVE
- Procedure summary: LanthaScreen Kinase Activity Assay (TR-FRET), G2019S-LRRK2
- Conditions used: class symbols; 25 μM ATP, 400 nM LRRKtide, 2.9 nM kinase, 60 min at room temperature
pIC50: −log10 of the molar value.
Measurement label: pIC50

I would be grateful if you could share the reported pIC50 for Cc1cc2cnnn2c(C)c1C(=O)Nc1ccc2[nH]nc(-c3ccccc3F)c2c1 .
≥ 7.00

Do the same for Cc1cc(C(=O)Nc2ccc3[nH]nc(-c4ccncc4)c3c2)cc2nn[nH]c12 please
6.00 to 7.00

Do the same for Cc1cc2c(cnn2C)c(C)c1C(=O)Nc1ccc2[nH]nc(-c3ccoc3)c2c1 please
≥ 7.00

Do the same for O=C(Nc1ccc2[nH]nc(-c3ccccc3)c2c1)c1cc2[nH]ncc2cc1C(F)(F)F please
≥ 7.00

Do the same for Cn1ncc2c(F)c(C(=O)Nc3ccc4[nH]nc(-c5cnn(C(F)F)c5)c4c3)c(F)cc21 please
≥ 7.00

Do the same for Cc1cn2cncc2cc1C(=O)Nc1ccc2[nH]nc(-c3ccoc3)c2c1 please
≥ 7.00

Do the same for O=C(Nc1ccc2[nH]nc(-c3ccoc3)c2c1)c1ccc2nccn2c1 please
≥ 7.00

Do the same for Cn1ncc2c(F)c(C(=O)Nc3ccc4[nH]nc(-c5ccccc5)c4c3)c(F)cc21 please
≥ 7.00

Do the same for Cc1oncc1-c1n[nH]c2ccc(NC(=O)c3c(F)cc4c(cnn4C)c3F)cc12 please
≥ 7.00

Do the same for Cn1ncc2c(F)c(C(=O)Nc3ccc4[nH]nc(N5CCC5)c4c3)c(F)cc21 please
6.00 to 7.00

Do the same for Cc1cccc(-c2n[nH]c3ccc(NC(=O)c4c(F)cc5c(cnn5C)c4F)cc23)n1 please
≥ 7.00

Do the same for O=C(Nc1ccc2[nH]nc(-c3ccoc3)c2c1)c1ccc2scnc2c1 please
6.00 to 7.00
